- MEASUREMENT_TARGET: HIV-1 NL43 envelope glycoprotein (Env) (HIV-1)
- TEST_DETAILS: cell-based or functional assay
The following binders are listed with their measured IC50 neutralization values.

The following binders have reported results that may help.
BINDER	IC50 neutralization
PGT-123 (antibody, V domains shown) VH: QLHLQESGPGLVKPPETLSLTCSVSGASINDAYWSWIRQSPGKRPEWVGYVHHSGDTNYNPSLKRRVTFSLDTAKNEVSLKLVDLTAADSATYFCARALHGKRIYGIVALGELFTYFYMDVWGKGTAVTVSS VL: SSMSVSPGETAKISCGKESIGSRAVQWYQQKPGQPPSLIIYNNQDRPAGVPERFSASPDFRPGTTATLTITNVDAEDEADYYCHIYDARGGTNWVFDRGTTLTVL	> 10 µg/mL
PGT-135 (antibody, V domains shown) VH: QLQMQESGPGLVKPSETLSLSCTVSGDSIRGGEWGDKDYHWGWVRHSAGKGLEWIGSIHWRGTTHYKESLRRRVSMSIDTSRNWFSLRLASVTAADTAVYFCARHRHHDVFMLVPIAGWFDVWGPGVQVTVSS VL: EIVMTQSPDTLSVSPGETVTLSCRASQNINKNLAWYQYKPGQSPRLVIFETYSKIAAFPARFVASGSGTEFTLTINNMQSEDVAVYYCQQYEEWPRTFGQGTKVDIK	6.79 µg/mL

// next entry
*Q* I have this binder here, PGT-126 (antibody, V domains shown) VH: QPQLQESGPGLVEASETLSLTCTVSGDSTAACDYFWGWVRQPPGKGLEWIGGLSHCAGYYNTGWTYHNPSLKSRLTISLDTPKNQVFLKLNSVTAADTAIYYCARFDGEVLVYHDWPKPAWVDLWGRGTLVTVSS VL: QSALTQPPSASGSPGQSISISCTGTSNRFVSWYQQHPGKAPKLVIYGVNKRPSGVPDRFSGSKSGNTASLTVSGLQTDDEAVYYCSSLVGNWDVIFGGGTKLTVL , and I need its recorded IC50 neutralization.
*A* > 10 µg/mL
